Measured Quantity: melting point

Example cases with answers are listed next.
Give recorded melting point. `Cc1ccc(C[C@@H]2CN(C(=O)/C=C/c3ccccc3)CCN2C(=O)c2cc(C(F)(F)F)cc(C(F)(F)F)c2)cc1C` 87 to 91 °C

Give recorded melting point. `CC(=O)OCCN1CCC(CNC(=O)[C@@H]2CCCN2S(=O)(=O)c2ccc(Cl)c(COc3cccc4c(-n5ccnc5)cc(C)nc34)c2Cl)CC1` 93 °C

More entries:
Give recorded melting point. `O=Cc1c(OCCCCCCC(=O)N(Cc2ccccc2)Cc2ccccc2)cc(Cl)cc1[N+](=O)[O-]` 76 to 77 °C

Give recorded melting point. CCCCCCCCCCCCCCCCCCCCC1Cc2cc(C(=O)O)ccc2N1 (racemic) 110 to 115 °C

Give recorded melting point. CC(=O)c1ccc(N2CCN(CCC3CN(C)C(=O)O3)CC2)cc1 (stereo not drawn) 142 to 145 °C

###

# Lookup of reported melting point keyed by entry

Example cases with answers are listed next.
Give recorded melting point. `COc1ccc(C=CC(=O)O)cc1-c1cc2c(cc1OCc1cccc(O)c1)C(C)(C)CCC2(C)C` 131 to 133 °C

Give recorded melting point. `CC(C)Nc1c(-c2c(F)cc(F)cc2F)c(Cl)nc2ncccc12` 193 °C

Give recorded melting point. `CN(OCC(=O)O)C(=S)NC(c1ccccc1)c1ccccc1` 160 to 162 °C

Give recorded melting point. Cc1cc(Cl)ccc1-c1cc(Cl)cc2c1NC(CN)CO2 (centres undefined) 102 °C

Give recorded melting point. `c1ccc(CCN2CCN(c3n[nH]c4c3Cc3ccccc3-4)CC2)cc1` 212 to 214 °C

More entries:
Give recorded melting point. `CCCCc1nc(SC)c(C(=O)O)n1Cc1ccc(-c2ccccc2S(=O)(=O)NC(=O)C(c2ccccc2)c2ccccc2)cc1` 205 °C

Give recorded melting point. C1=CC(c2ccccc2)Nc2ccccc21 (centres undefined) 75 °C

Give recorded melting point. N#Cc1ccc(C(CC(=O)O)N2C(=O)c3ccccc3C2=O)cc1 (centres undefined) 134 to 137 °C

###

# Lookup of reported melting point keyed by entry

Example cases with answers are listed next.
Give recorded melting point. COC1CCC2(C)C(=CCC3C4CCC(=O)C4(C)CCC32)C1 (centres undefined) 133 to 135 °C

Give recorded melting point. `CS(=O)(=O)c1ccc(-c2nn(Cc3ccc(F)cc3F)c(=O)cc2-c2ccc(Cl)cc2)cc1` 174 °C

Give recorded melting point. `CCn1c(C(O)(c2cccc(F)c2)c2cccc(F)c2)nc(-c2ccncc2)c1-c1ccc(Cl)cc1` 225 to 227 °C

Could you now look at the following compound, please?
Give recorded melting point. `CC[C@H](C)CNC(=O)[C@@H](C[C@H](O)[C@H](CC1CCCCC1)NC(=O)OC(C)(C)C)C(C)(C)O` 64 to 67 °C

###

# Lookup of reported melting point keyed by entry

Give recorded melting point. O=C1CCC(c2ccccc2)(c2ccccc2)C2CN(C(Cc3ccccc3)=NCCc3ccccc3)CC12 (stereo not given) 188 °C

Give recorded melting point. Cc1cc(C)c2c(c1C)OC(=O)C2c1ccc(C(C)C)cc1 (stereo not given) 107 to 108 °C

Give recorded melting point. CCCCC(O)c1ccc2cc(O)ccc2c1 (stereo not given) 109 to 111 °C

Give recorded melting point. `C[C@@H](Nc1c(NCc2ccc(F)cc2)c(=O)c1=O)C(C)(C)C` 289 to 291 °C

Give recorded melting point. CCOC(=O)C(SC)C(=O)Nc1ccc(Br)cc1C (stereo not given) 85 to 88 °C

Give recorded melting point. `CC(=O)NC[C@H]1CN(c2ccc(C3=CCN(C=O)CC3)cc2)C(=O)O1` 149 to 152 °C

More entries:
Give recorded melting point. `COC(=O)c1c[nH]c(Sc2ccc(Cl)cc2)c1` 122 to 124 °C

Give recorded melting point. CCN1CCC2(c3cccc(O)c3)Cc3[nH]c(C(=O)Nc4ccccc4)c(C)c3CC2C1 (stereo not given) 271 to 272 °C

Give recorded melting point. CC(CN(C)C)C(C#N)(c1ccccc1)c1ccccc1 (single isomer, unassigned; (-)) 102 to 103 °C

Give recorded melting point. O=C(O)c1ccccc1CN1C(=O)C2(COc3cc4c(cc32)OCO4)c2ccccc21 (stereo not given) > 250 °C
